- System: MDCK (Madin-darby canine kidney) cells
- test.context: read-out: TC50 (toxic concentration 50%); host cells of the anti-flu virus test
metric.name: CC50
State the result as a value with its unit after it.

The following compounds have reported results that may help.
compound	target.system	CC50
C=C(C(=O)Oc1ccc(Br)cc1)C1CCC(C)C2CC(=O)C(C)=C2C1 (stereo not shown)	MDCK (Madin-darby canine kidney) cells	44.2 µM
C=C(C(=O)OCC)C1CCC(C)C2CC(=O)C(C)=C2C1 (stereo not shown)	MDCK (Madin-darby canine kidney) cells	194 µM
C=C(C(=O)Nc1ccccc1Br)C1CCC(C)C2CC(=O)C(C)=C2C1 (stereo not shown) [A-5, N(2-bromo-phenyl)-Rupestonic amide]	MDCK (Madin-darby canine kidney) cells	160 µM

// moving on: another record for CC50
## Task Record request: CC50 value, item C=C(C(=O)OCc1ccccc1Br)C1CCC(C)C2CC(=O)C(C)=C2C1 (stereo not shown)
## Result 57.3 µM

====

Reported values of CC50 for individual entries
- System: MDCK (Madin-darby canine kidney) cells
- test.context: read-out: TC50 (toxic concentration 50%); host cells of the anti-flu virus test
The reply should be a number in µM, with the unit left off.

molecule	CC50 / µM
C=C(C(=O)Oc1ccc(C)cc1)C1CCC(C)C2CC(=O)C(C)=C2C1 (stereo not shown) [B-9, Rupestonic (p-methylphenyl)-ester]	191
C=C(C(=O)O)[C@H]1CC[C@H](C)[C@@H]2CC(=O)C(C)=C2C1 [Compound 1, rupestonic acid]	1040
C=C(C(=O)Nc1ccc(Cl)cc1)C1CCC(C)C2CC(=O)C(C)=C2C1 (stereo not shown) [A-2, N(4-chloro-phenyl)-Rupestonic amide]	121

## Task Look up CC50: C=C(C(=O)Oc1ccc(Cl)cc1)C1CCC(C)C2CC(=O)C(C)=C2C1 (stereo not shown) [B-2, Rupestonic (p-chlorophenyl)-ester]
## Result 240

## Task Next: C=C(C(=O)OCc1ccc(Cl)cc1)C1CCC(C)C2CC(=O)C(C)=C2C1 (stereo not shown) [B-14, Rupestonic (p-chlorobenzyl)-ester]
## Result 47.7

## Task Next up: C=C(C(=O)Oc1ccccc1Cl)C1CCC(C)C2CC(=O)C(C)=C2C1 (stereo not shown) [B-3, Rupestonic (o-chlorophenyl)-ester]
## Result 49.7

## Task For C=C(C(=O)OCc1ccc([N+](=O)[O-])cc1)C1CCC(C)C2CC(=O)C(C)=C2C1 (stereo not shown) [B-15, Rupestonic (p-nitryl-benzyl)-ester] then?
## Result 25
